Assay: Oral bioavailability in rat at 10 mg/kg
Format: ADME, organism-based
Settings: in vivo
Measured attribute: bioavailability (%)
Give your result in % as a bare value.

query: Please give the measured bioavailability for this compound: CC(C)CCN[C@@H]1CCc2cc(O)c(N3CC(=O)NS3(=O)=O)c(F)c2C1
result: 1.4

Could you now look at the following compound, please?
query: Please give the measured bioavailability for this compound: CCN1CCc2cc(O)c(N3CC(=O)NS3(=O)=O)c(F)c2CC1
result: 19

---

Experiment: Half life in mouse at 10 mg/kg, po
Type: ADME, organism-based
Conditions: in vivo
Quick rule: half-life of at least 4 h means yes, below that means no.

Solved entries (count: 5):
query: # check: half-life of O=C1CN(c2c(O)cc3c(c2F)CCN(CCC2CC2)CC3)S(=O)(=O)N1 is greater than or equal to 4 h
result: yes

query: # check: half-life of CC(C)CCN[C@@H]1CCc2cc(O)c(N3CC(=O)NS3(=O)=O)c(F)c2C1 [OSUNPROTAFIB] is greater than or equal to 4 h
result: yes

query: # check: half-life of CCN1CCc2cc(O)c(N3CC(=O)NS3(=O)=O)c(F)c2CC1 is greater than or equal to 4 h
result: no

query: # check: half-life of CN1CCc2cc(O)c(N3CC(=O)NS3(=O)=O)c(F)c2CC1 is greater than or equal to 4 h
result: no

query: # check: half-life of CC1Cc2c(cc(O)c(N3CC(=O)NS3(=O)=O)c2F)CCN1 (racemic) is greater than or equal to 4 h
result: no

Further cases:
query: # check: half-life of O=C1CN(c2c(O)cc3c(c2F)CCN(CC2CC2)CC3)S(=O)(=O)N1 is greater than or equal to 4 h
result: yes

query: # check: half-life of O=C1CN(c2c(O)cc3c(c2F)CCN(CCCC2CC2)CC3)S(=O)(=O)N1 is greater than or equal to 4 h
result: yes

---

Assay: AUC (0 to t) in mouse at 10 mg/kg, po
Format: ADME, organism-based
Conditions: in vivo
Quick rule: AUC(0-t) of at least 3000 ng·h/mL means Yes, below that means No.

query: # check: AUC(0-t) of CN1CCc2cc(O)c(N3CC(=O)NS3(=O)=O)c(F)c2CC1 is greater than or equal to 3000 ng·h/mL
result: Yes

query: # check: AUC(0-t) of CC(C)CCN[C@@H]1CCc2cc(O)c(N3CC(=O)NS3(=O)=O)c(F)c2C1 is greater than or equal to 3000 ng·h/mL
result: No

query: # check: AUC(0-t) of O=C1CN(c2c(O)cc3c(c2F)CCN(CCC2CC2)CC3)S(=O)(=O)N1 is greater than or equal to 3000 ng·h/mL
result: No

Turning now to a further compound:
query: # check: AUC(0-t) of CCN1CCc2cc(O)c(N3CC(=O)NS3(=O)=O)c(F)c2CC1 is greater than or equal to 3000 ng·h/mL
result: Yes

---

Test: Solubility of compound in FeSSIF at pH 7.4
Measured attribute: solubility (µM)
Give your result in µM as a bare value.

query: Please give the measured solubility for this compound: CC(C)CCN[C@@H]1CCc2cc(O)c(N3CC(=O)NS3(=O)=O)c(F)c2C1
result: 223
